Answer each item with its documented Cytotoxicity in vitro EC90 L 1210.
System: L1210 mouse leucemia
ASSAY_METHOD_TEXT: inhibition of colony formation in soft agar (colony assay), L1210
Type: cell-based
STATED_CONDITIONS: concentration giving 90% inhibition of colony formation, determined by graph; 6 days incubation
// return numeric value only (unit: µg/mL, not printed)

Input: Provide one value: measured Cytotoxicity in vitro EC90 L 1210 of CCCCCCCCCCCCCCCCCCNC(=O)C(N)CCCCNC(=O)C(N)CCCCN.Cl.Cl.Cl [D-21 621, H--LYS(LYS)--NHC18 H37.3HCl]
Output: 2.2

Input: Provide one value: measured Cytotoxicity in vitro EC90 L 1210 of Br.Br.Br.CCCCCCCCCCCCCCCCCCNC(=O)C(N)CCCCNC(=O)C(N)CCCCN (stereo not shown)
Output: 3.2

Input: Provide one value: measured Cytotoxicity in vitro EC90 L 1210 of CCCCCCCCCCCCCCCCCCNC(=O)C(N)CCCNC(=O)C(N)CCCN.Cl.Cl.Cl [D-20 989, H--ORN(ORN)--NHC18 H37.3HCL]
Output: 3.1

Input: Provide one value: measured Cytotoxicity in vitro EC90 L 1210 of CCCCCCCCCCCCCCCCCCNC(=O)C(CCCCN)NC(=O)C(N)CCCCN (stereo not shown)
Output: 3.1

Input: Provide one value: measured Cytotoxicity in vitro EC90 L 1210 of CCCCCCCCCCCCCCCCNC(=O)C1CSCN1 (stereo not shown)
Output: 3.4

Input: Provide one value: measured Cytotoxicity in vitro EC90 L 1210 of CCCCCCCCCCCCCCCCCCNC(=O)[C@H](N)CCCCNC(=O)[C@H](N)CCCCN.Cl.Cl.Cl [D-22 628, H--D--LYS(D--LYS)--NHC18 H37.3HCL]
Output: 0.8

Input: Provide one value: measured Cytotoxicity in vitro EC90 L 1210 of CCCCCCCCCCCCCCNC(=O)C1CSCN1 (stereo not shown)
Output: 0.3
